- Test system: NCI-H226 lung
- assay.overview: NCI tumour cell line growth inhibition, 48 h
Overview of recorded GI50 for various compounds

>  <compound>
COc1ccc(-c2csc(Nc3cccc(-c4csc(C)n4)c3)n2)cc1

>  <test.target>
NCI-H226 lung

>  <GI50>
6.12 µM

$$$$
>  <compound>
CC(=O)Oc1cc2cnc3c4cc(OC(C)=O)c(OC(C)=O)cc4ccc3c2cc1OC(C)=O

>  <test.target>
NCI-H226 lung

>  <GI50>
2.04 µM

$$$$
>  <compound>
Nc1ccccc1C#Cc1ccccc1C#Cc1cccs1

>  <test.target>
NCI-H226 lung

>  <GI50>
17.7 µM

$$$$
>  <compound>
CCn1c(-c2nonc2N)nc2cnc(Oc3cccc(NC(=O)c4ccc(N(C)C)cc4)c3)cc21

>  <test.target>
NCI-H226 lung

>  <GI50>
> 25 µM

$$$$
>  <compound>
COc1cc2c3cc1Oc1c(OC)c(OC)cc4c1C(Cc1ccc(O)c(c1)Oc1ccc(cc1)CC3N(C)CC2)N(C)CC4 (stereo not given)

>  <test.target>
NCI-H226 lung

>  <GI50>
34.4 µM

$$$$
>  <compound>
CCOc1ccc2cc(-c3nn(CC4CCNCC4)c4ncnc(N)c34)ccc2c1

>  <test.target>
NCI-H226 lung

>  <GI50>
10 µM

$$$$
>  <compound>
CCOC(=O)c1c(NC(=O)c2ccc(Cl)cc2)sc2c(CN(C)C)c(O)ccc12

>  <test.target>
NCI-H226 lung

>  <GI50>
18.3 µM

$$$$
>  <compound>
Cc1cc(-c2nc3c(F)cccc3s2)ccc1N

>  <test.target>
NCI-H226 lung

>  <GI50>
5.45 µM

$$$$
>  <compound>
COc1cc(-c2nn(-c3cccc(NC(=O)CCNc4ccc(N5CCOCC5)cc4)c3)cc2-c2ccncc2)ccc1Cl

>  <test.target>
NCI-H226 lung

>  <GI50>
2.89 µM

$$$$
>  <compound>
Cc1ccc(C2CC(c3ccc(Nc4ccnc5cc(Cl)ccc45)cc3)=NN2C=O)cc1 (stereo not given)

>  <test.target>
NCI-H226 lung

>  <GI50>
> 100 µM

$$$$

* * *

- System: TK-10 renal
- assay.overview: NCI tumour cell line growth inhibition, 48 h

>  <compound.string>
O=C(NCCN1CCCCC1)c1cccc(I)c1

>  <test.target>
TK-10 renal

>  <TGI>
> 100 µM

$$$$
>  <compound.string>
COc1ccc(N2C(=O)C(=O)C3(CCCCC3)C2=O)c2ccccc12

>  <test.target>
TK-10 renal

>  <TGI>
> 10 µM

$$$$
>  <compound.string>
Cc1cc(S(N)(=O)=O)c(S/C(=N\NS(=O)(=O)c2ccccc2)c2ccc(Cl)cc2)cc1Cl

>  <test.target>
TK-10 renal

>  <TGI>
> 100 µM

$$$$

* * *

- System: RPMI-8226 leukemia
- assay.overview: NCI tumour cell line growth inhibition, 48 h

>  <compound>
C=CCN1CCC(c2cc(C(=O)OCC)[nH]c2-c2cc(C)no2)C1=O (configuration not stated)

>  <TGI>
> 100 µM

$$$$
>  <compound>
O=CN1N=C(c2cccc(Nc3ccnc4cc(Cl)ccc34)c2)CC1c1ccc(Cl)cc1 (configuration not stated)

>  <TGI>
> 100 µM

$$$$
>  <compound>
CC(Oc1ccccc1Cl)C(=O)NN1C(=O)CC(=O)N(c2ccc(Cl)cc2)C1=S (configuration not stated)

>  <TGI>
> 100 µM

$$$$
>  <compound>
C=C1C(O)C2(O)OCC34C(CC5C(C)=CC(=O)C(O)C5(C)C23)OC(=O)C(OC(=O)C/C=C/CCCCCCCC)C14 (configuration not stated)

>  <TGI>
0.0249 µM

$$$$
>  <compound>
CC(C)OP(=O)(O)c1ncc(-c2ccc(C(F)(F)F)cc2)c(NC2CCCCCC2)n1

>  <TGI>
> 100 µM

$$$$
>  <compound>
OCCN(CO)CO

>  <TGI>
> 100 µM

$$$$
>  <compound>
CC(=O)Nc1cccc(N2C(=O)/C(=C\c3cccc(Oc4ccccc4)c3)SC2c2ccccc2)c1 (configuration not stated)

>  <TGI>
89 µM

$$$$
>  <compound>
COC(=O)c1c(O)ccc2c1c1cc3ccccc3c(O)c1n2CCc1ccc(OC)c(OC)c1

>  <TGI>
> 100 µM

$$$$
>  <compound>
COC(=O)c1ccc2c(c1)CC1(C2)Cc2ccccc2C1=O (configuration not stated)

>  <TGI>
38 µM

$$$$
>  <compound>
CC(=O)/C(=C\I)c1ccccc1

>  <TGI>
5.26 µM

$$$$
>  <compound>
O=C1Oc2ccccc2C(=O)/C1=C/N1C(=O)CNC1=S

>  <TGI>
> 100 µM

$$$$
>  <compound>
CC(O)[C@H](NC(=O)N[C@@H](CC(N)=O)c1nc(N2CCNCC2)no1)C(=O)O (some centres not stated)

>  <TGI>
> 100 µM

$$$$
>  <compound>
COc1cc2cc(C(=O)N3CC(CCl)c4ccc([N+](C)(C)Cc5ccccc5[N+](=O)[O-])cc43)[nH]c2c(OC)c1OC (configuration not stated)

>  <TGI>
5.3 µM

$$$$
>  <compound>
CC(=O)OCC1OC(n2c3c(cc(C#N)c2=S)CCCC3)C(OC(C)=O)C(OC(C)=O)C1OC(C)=O (configuration not stated)

>  <TGI>
> 100 µM

$$$$
>  <compound>
O=C(Nc1ccccc1)Oc1ccc(C(=S)Nc2ccc(Br)cc2)cc1

>  <TGI>
> 100 µM

$$$$
>  <compound>
CC1(C)OC(=O)C(=C2CCC(C(=O)Nc3cccc(C(F)(F)F)c3)N2)C(=O)O1 (configuration not stated)

>  <TGI>
> 100 µM

$$$$
>  <compound>
CC(C)[Si]1(C(C)C)OCC2OC(n3ccc(=O)[nH]c3=O)C([Se]c3ccccc3)C2O[Si](C(C)C)(C(C)C)O1 (configuration not stated)

>  <TGI>
10.9 µM

$$$$
>  <compound>
COc1ccc(-c2csc(Nc3cccc(-c4csc(C)n4)c3)n2)cc1

>  <TGI>
> 50 µM

$$$$
>  <compound>
O=C1c2c(Br)sc(Br)c2[C@@H](O)[C@H]1O

>  <TGI>
47.6 µM

$$$$
>  <compound>
CC(=O)c1ccc(Nc2c3ccccc3nc3occc23)cc1

>  <TGI>
4.28 µM

$$$$
>  <compound>
COC(=O)/C=C\C(C#N)(C#N)N=Cc1ccc(OC)cc1

>  <TGI>
2.87 µM

$$$$
>  <compound>
Cn1c(=O)c2c(nc(N/N=C/c3ccccc3C(=O)O)n2C)n(C)c1=O

>  <TGI>
> 100 µM

$$$$
>  <compound>
Cc1ccc(S(=O)(=O)N/N=C2/CCC3(O)CC2(C)CCC2[C@H]3CC2(C)C)cc1 (some centres not stated)

>  <TGI>
> 100 µM

$$$$
>  <compound>
COc1ccc(-c2cc(/C=C/C(=O)c3ccc(N)cc3)[nH]n2)cc1

>  <TGI>
3.22 µM

$$$$
>  <compound>
O=C1CCC(=O)N1Sc1ccccc1

>  <TGI>
> 100 µM

$$$$
>  <compound>
Cc1[nH]c(-c2ccccc2)c2nc(N(C)C)oc(=O)c12

>  <TGI>
> 100 µM

$$$$
>  <compound>
CCCCCC[C@H]1C(=O)O[C@H](C)[C@H](NC(=O)c2cccc(NC=O)c2OC)C(=O)O[C@@H](C)[C@@H]1OC(=O)CCC (tested in a mixture with another compound)

>  <TGI>
37.9 µM

$$$$
>  <compound>
C/C(C=O)=C/[C@@]1(C)O[C@@H](C)[C@@](C)(O)[C@@H]1O

>  <TGI>
> 100 µM

$$$$
>  <compound>
CCN(c1ccccc1)[C@H]1C(=O)N(c2ccc([N+](=O)[O-])cc2)[C@H]1c1ccc(OC)cc1

>  <TGI>
> 100 µM

$$$$
>  <compound>
CC(=O)N1C(Nc2nccs2)CCN1c1ccccc1 (configuration not stated)

>  <TGI>
> 10 µM

$$$$
>  <compound>
O=C(Cc1nc2ccccc2[nH]c1=O)c1c[nH]c2ccccc12

>  <TGI>
> 100 µM

$$$$
>  <compound>
N#CCc1cccc(CC#N)c1Br

>  <TGI>
> 100 µM

$$$$

* * *

TGI values, listed per item
- Tested on: HCC-2998 colon
- assay.overview: NCI tumour cell line growth inhibition, 48 h
observable: TGI

>  <molecule>
Cc1cc(-c2nc3c(F)cccc3s2)ccc1N

>  <endpoint.value>
> 100 µM

$$$$
>  <molecule>
Nc1ccccc1C(=O)N=Nc1c(O)[nH]c2ccccc12

>  <endpoint.value>
> 100 µM

$$$$
>  <molecule>
Cn1nnc2c3c(N(CCO)CCO)ccnc3ccc21

>  <endpoint.value>
91.2 µM

$$$$
>  <molecule>
Cc1cc(Cl)ccc1NC(=O)C1C(=O)N(c2ccc(Cl)cc2C)C(=O)/C1=N\NC(N)=S (stereo unspecified)

>  <endpoint.value>
44.5 µM

$$$$
>  <molecule>
CN1CCC(C(O)(c2ccccc2)c2ccc(Br)cc2)CC1 (stereo unspecified)

>  <endpoint.value>
25.1 µM

$$$$
>  <molecule>
COc1cc2cc(C(=O)N3CC(CCl)c4ccc([N+](C)(C)Cc5ccccc5[N+](=O)[O-])cc43)[nH]c2c(OC)c1OC (stereo unspecified)

>  <endpoint.value>
9 µM

$$$$
